biological target: F508delCFTR (Homo sapiens, UniProt P13569, DEL508-508); construct: expressed in transfected cells; host or cells: CFBE41o- human lung-derived epithelial cell line, doxycycline-inducible expression; assay: Cell Surface Expression-Horse Radish Peroxidase (CSE-HRP) assay in CFBE41o-F508delCFTR-HRP cells; format: cell-based; conditions: with co-corrector (2 μM); CFBE41o-F508delCFTR-HRP cells, 18-24 hours at 33° C., luminescence; read-out: EC50 (with co-corrector)
Sequence (P13569 with tags, fused parts or gaps DEL508-508): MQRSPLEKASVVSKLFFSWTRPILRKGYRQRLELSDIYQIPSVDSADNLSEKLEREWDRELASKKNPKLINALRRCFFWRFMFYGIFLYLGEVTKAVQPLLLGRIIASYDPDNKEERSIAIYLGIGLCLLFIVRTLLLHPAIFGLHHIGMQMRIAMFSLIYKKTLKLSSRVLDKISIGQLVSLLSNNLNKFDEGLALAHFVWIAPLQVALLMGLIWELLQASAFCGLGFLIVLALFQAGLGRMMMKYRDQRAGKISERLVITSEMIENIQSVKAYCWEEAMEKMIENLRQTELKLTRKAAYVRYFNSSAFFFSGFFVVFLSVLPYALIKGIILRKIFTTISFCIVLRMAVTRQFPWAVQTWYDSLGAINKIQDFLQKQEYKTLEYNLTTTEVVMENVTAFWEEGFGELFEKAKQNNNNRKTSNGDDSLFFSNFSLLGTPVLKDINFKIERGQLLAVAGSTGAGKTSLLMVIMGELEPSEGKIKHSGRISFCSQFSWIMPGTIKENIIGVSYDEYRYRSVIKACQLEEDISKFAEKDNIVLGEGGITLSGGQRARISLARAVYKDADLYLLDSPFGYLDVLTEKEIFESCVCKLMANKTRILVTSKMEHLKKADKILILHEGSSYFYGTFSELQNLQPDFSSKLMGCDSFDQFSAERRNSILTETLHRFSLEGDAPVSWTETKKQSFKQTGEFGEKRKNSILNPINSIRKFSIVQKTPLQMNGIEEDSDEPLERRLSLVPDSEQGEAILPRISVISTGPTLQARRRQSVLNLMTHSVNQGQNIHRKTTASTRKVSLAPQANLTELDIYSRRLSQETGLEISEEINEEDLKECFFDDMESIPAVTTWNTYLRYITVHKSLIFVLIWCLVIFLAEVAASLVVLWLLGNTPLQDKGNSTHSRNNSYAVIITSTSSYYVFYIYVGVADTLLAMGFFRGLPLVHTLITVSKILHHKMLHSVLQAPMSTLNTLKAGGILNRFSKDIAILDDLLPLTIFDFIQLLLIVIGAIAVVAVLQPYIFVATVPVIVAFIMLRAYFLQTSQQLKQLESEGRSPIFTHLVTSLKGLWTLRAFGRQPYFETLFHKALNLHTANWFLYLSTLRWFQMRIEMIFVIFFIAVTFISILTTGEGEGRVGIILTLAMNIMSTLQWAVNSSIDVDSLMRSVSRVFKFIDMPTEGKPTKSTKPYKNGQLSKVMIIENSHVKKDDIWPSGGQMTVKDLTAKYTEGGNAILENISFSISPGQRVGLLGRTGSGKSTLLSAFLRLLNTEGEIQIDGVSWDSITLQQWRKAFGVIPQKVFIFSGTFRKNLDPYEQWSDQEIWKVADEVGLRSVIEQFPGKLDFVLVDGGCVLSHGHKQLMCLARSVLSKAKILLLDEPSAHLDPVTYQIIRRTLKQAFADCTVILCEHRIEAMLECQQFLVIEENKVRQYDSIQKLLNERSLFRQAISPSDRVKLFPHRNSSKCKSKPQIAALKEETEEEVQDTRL
Measured Property: EC50 (nM)

Examples with their reported EC50 follow.
Prompt: Retrieve EC50 measured for COc1cccc([C@@H]2C[C@]2(C(=O)NS(=O)(=O)c2cccc3nc(C)ccc23)c2cc(C)ccc2OC)c1 (single isomer, unassigned) [Example 27] and print it.
Completion: 429

Prompt: Retrieve EC50 measured for `COc1ccc(C)cc1[C@]1(C(=O)NS(=O)(=O)c2cccc3nc(C)ccc23)C[C@@H]1c1cccc(C(C)C)n1` and print it.
Completion: 510

Prompt: Retrieve EC50 measured for COc1ccc([C@@H]2C[C@]2(C(=O)NS(=O)(=O)c2cccc3nc(C)ccc23)c2cc(C)ccc2OC)cc1 (single isomer, unassigned) and print it.
Completion: 393

1: COc1nccc([C@@H]2C[C@]2(C(=O)NS(=O)(=O)c2cccc3nc(C)ccc23)c2cc(C)ccc2OC)n1 (racemic) [Example 95]
2: COc1ccc(C)cc1[C@@]1(C(=O)NS(=O)(=O)c2cccc3nc(C)ccc23)C[C@H]1c1ccccc1 (single isomer, unassigned) [Example 2]
3: COc1ccc([C@H]2C[C@@]2(C(=O)NS(=O)(=O)c2cccc3nc(C)ccc23)c2cc(C)ccc2OC)cn1
Prompt: Rank by EC50 (largest to smallest). Output spec: a listing of the labels in the requested order.
Completion: 3, 1, 2
